Where do the numbers come from? From PubChem BioAssay AID1361.

Assay Method Text: blockers of mitochondrial fusion, WT vs mutant – cell-based, chemical genetic, wild-type and mutant, confirmation (AID 1361)
Experimental Setup: Cell-based mitochondrial fusion phenotype, imaging, WT cells
Active and inactive are the calls of the source. No rule for the calls is given here.
Output constraint: value belongs to active, inactive

Cc1cc(=O)oc(C)c1C(=O)Nc1ccc2nsnc2c1
inactive

Ask: Please indicate how the test categorized COC(=O)C1=C(O)/C(=C\c2ccc(CNC(=O)C(=O)Nc3ccc(C)cc3)o2)N=C1C .
Reply: inactive

Ask: Follow-up item: COc1ccc(-c2nnc(SCc3cc(C)cc(C)c3)o2)cc1
Reply: active

Ask: N#Cc1ccccc1Sc1ccccc1C(=O)Nc1ccc(Br)cc1 ?
Reply: inactive

Ask: Next compound up: C/C(=N\O)c1ccc2c3c([nH]c2c1)CCCC3
Reply: inactive

Ask: What would you report for CC(C)N=c1scc(-c2cccs2)n1/N=C/c1ccc(O)c(O)c1O ?
Reply: inactive

Ask: Another compound to look at: Cc1ccc(S(=O)(=O)Nc2ccc(N=Nc3ccc(O)cc3)cc2)cc1
Reply: active

Ask: Item: O=C(COC(=O)c1cc(-c2cccc(Br)c2)nc2ccccc12)NCC1CCCO1 (stereo not given)
Reply: active

Ask: Now the compound CCN(CC)S(=O)(=O)c1cccc(C(=O)Nc2sc3c(c2C(N)=O)CCCC3)c1
Reply: inactive

Ask: And COc1ccc(NC(=O)CN(c2ccc(C)cc2)S(C)(=O)=O)c(OC)c1 ?
Reply: inactive

Ask: Also CCCCOP(=O)(c1ccc(N(C)C)cc1)C(Nc1ccccc1)c1ccccc1 (stereo not given) , if possible.
Reply: active

* * *

Assay Method Text: blockers of mitochondrial fusion, WT vs mutant – cell-based, chemical genetic, wild-type and mutant, confirmation (AID 1361)
Experimental Setup: Cell-based mitochondrial fusion phenotype, imaging, WT cells
Activity calls are given as the source filed them. How the calls were made is not given here.
// one of active, inactive, no free text

Some solved cases for reference:
c1ccc2c(c1)sc1nnnn12
inactive
COC(=O)CP(=O)(c1ccccc1)c1ccccc1
inactive
O=C(NCc1ccccc1)c1ccc(C(=O)N(C2CCCCC2)C2CCCCC2)cc1
inactive
Cc1ccc(NC(=S)N(CCCN2CCCC2)Cc2cccn2Cc2ccc(Cl)cc2)cc1C
active
CCOc1ccc(OCC)c(S(=O)(=O)NCCOC23CC4CC(CC(C4)C2)C3)c1
inactive
O=C(CS(=O)(=O)Cc1ccccc1)Nc1cccnc1
inactive
CC(C)c1ccc(OCC(O)Cn2cnc3ccccc32)cc1 (stereo unspecified)
inactive
Cc1ccc(NC(=O)c2cc(-c3ccccc3)nn2-c2ccccc2)c(Br)c1
active

Ask: Assay result, entry O=C(c1ccco1)N1CCN(C(=O)C2c3ccccc3Oc3ccccc32)CC1 — outcome?
Reply: inactive

Ask: Try this compound too: COC(=O)C1=CN(CCOC23CC4CC(CC(C4)C2)C3)C=C(C(=O)OC)C1c1ccsc1
Reply: active

Ask: Please give the result for COCCNC(=O)CC(NS(=O)(=O)c1ccc(C)cc1)c1ccco1 (stereo unspecified) too.
Reply: inactive

* * *

Assay Method Text: blockers of mitochondrial fusion, WT vs mutant – cell-based, chemical genetic, wild-type and mutant, confirmation (AID 1361)
Experimental Setup: Cell-based mitochondrial fusion phenotype, imaging, WT cells
The source made the active and inactive calls. The rule behind the calls is not given here.
Mark one answer only. Choices: t for active, f for inactive

Observe how each entry below is paired with its result.
CCOC(=O)c1c(-c2ccc(C)cc2)csc1NC(=O)C1CCCO1 (configuration not stated)
f
COc1ccc(C(=O)N(Cc2nc(-c3ccc(C)cc3)no2)C2CCCCC2)cc1OC
t
CC(C)c1ccccc1OCC(=O)NC1CCCc2ccccc21 (configuration not stated)
t
CCc1cc(-c2n[nH]c(=S)n2-c2ccccc2C)cs1
f
CN(CC(=O)O/N=C(\N)c1cccc([N+](=O)[O-])c1)S(=O)(=O)c1ccccc1
f
Cc1cccc(-c2nnc(SCc3ccccc3)o2)c1
f
O=C(OCc1csc(Nc2ccccc2)n1)c1ccc(Cl)cc1
t
CCC(C(=O)OCC(=O)Nc1ccc(SC(F)F)cc1)c1ccccc1 (configuration not stated)
t
CCOC(=O)C1=C(C)NC(C)=C(C(=O)OC)C1c1cccc(Cl)c1Cl (configuration not stated)
t
COc1ccccc1C(=O)NC(=S)/C=C1/N(C)c2ccccc2C1(C)C
t

Ask: # lookup: test call for CC(C)(C)[C@H]1C=C(C(=O)N2CCN(Cc3ccccc3)CC2)O[C@@H](OCc2ccc(CO)cc2)C1
Reply: t

Ask: Also need CC1CCCN(c2nc(-c3cccnc3)nc3scc(-c4ccccc4)c23)C1 (configuration not stated) , thanks.
Reply: t

Ask: What do you have for Cc1cc(Br)c(OCc2ccc(C(=O)N/N=C3\CC4CC=CC34)cc2)c(Br)c1 (configuration not stated) ?
Reply: t

Ask: Can you handle COC(=O)c1ccc(NC(=O)Nc2ccc(F)c(Cl)c2)cc1 next?
Reply: t

Ask: Try this compound next: C=CCSc1nnc(NC(=O)COc2ccc3ccccc3c2)s1
Reply: f

Ask: How about O=C(CSc1nc2cc(Cl)ccc2o1)NCCc1ccccc1 ?
Reply: f

Ask: Record: CCOc1ccccc1N1CCN(C(=S)NC(=O)C23CC4CC(CC(C4)C2)C3)CC1
Reply: t

Ask: Consider next the compound Cc1cc(C)nc(Nc2ncc(O)n2-c2ccccc2)n1 in the same way.
Reply: f

Ask: Same lookup for CCCCCCn1c(N)c(C(=O)NCCN2CCOCC2)c2nc3ccccc3nc21 , please.
Reply: f

Ask: # repeat for O=c1c2ccccc2[nH]c(=S)n1-c1ccc2c(c1)OCO2
Reply: f

Ask: Next compound up: CCCCn1c(N2CCC(Cc3ccccc3)CC2)nc2c1c(=O)[nH]c(=O)n2C
Reply: t

Ask: Another compound: O=C(CN1C(=O)COc2ccccc21)N(Cc1cccnc1)Cc1cccc(F)c1
Reply: f

* * *

Assay Method Text: blockers of mitochondrial fusion, WT vs mutant – cell-based, chemical genetic, wild-type and mutant, confirmation (AID 1361)
Experimental Setup: Cell-based mitochondrial fusion phenotype, imaging, WT cells
Calls of active or inactive are those of the source. How the calls were made is not given here.
Quantity Kind: IC50

# annotated cases, reported IC50 shown
O=C(Nc1ccccc1Oc1ccccc1)c1cc([N+](=O)[O-])ccc1Cl
6.46 µM
O=C(COc1ccccc1[N+](=O)[O-])N/N=C/C=C/c1ccco1
> 25 µM (inactive)
Cc1cc(C)cc(NS(=O)(=O)c2ccc(Oc3ncc(C(F)(F)F)cc3Cl)cc2)c1
10.9 µM
CCCCN(CCCC)C1=Nc2ccccc2N/C1=C(/C#N)C(=O)OCC
6.94 µM

Consider the record given below.
Ask: Which IC50 value is on record for CCOC(=O)N1CCC(NC(=O)c2cc(-c3ccc(F)cc3)[nH]c2C)CC1 ?
Reply: > 25 µM (inactive)

* * *

Assay Method Text: blockers of mitochondrial fusion, WT vs mutant – cell-based, chemical genetic, wild-type and mutant, confirmation (AID 1361)
Experimental Setup: Cell-based mitochondrial fusion phenotype, imaging, WT cells
Calls of active or inactive are those of the source. The rule behind the calls is not given here.
Below, each of the molecules is paired with its reported IC50 value.

Example results:
CCN(Cc1ccccc1)C(c1ccc(C(F)(F)F)cc1)c1nnnn1C(C)(C)C (stereo not drawn)
8.69 µM
CCCCNC(=O)C1=C(N)C(C(=O)Nc2ccc(C)c(S(=O)(=O)N3CCCCC3)c2)SC1=Nc1ccc(C)cc1C (stereo not drawn)
> 25 µM (inactive)
O=C(NCc1ccccc1)c1ccc(-c2ccccc2C(F)(F)F)o1
> 25 µM (inactive)
CC(C)/C(=N/Nc1ccccc1[N+](=O)[O-])c1ccccc1
> 25 µM (inactive)
CS(=O)(=O)N(CC(=O)NCc1ccc2c(c1)OCO2)c1ccc(Cl)cc1
> 25 µM (inactive)

Ask: Need IC50 of CCCCNC(=S)N(C)/N=C/c1c(F)c(F)c(F)c(F)c1F , thanks.
Reply: > 25 µM (inactive)

Ask: Here is the next molecule: Cc1cc(NC(=S)N(Cc2cccc(Br)c2)CC2CCC(C(=O)O)CC2)ccc1Cl (stereo not drawn)
Reply: 21.9 µM

Ask: Next molecule: CCOC(=O)c1sc(/N=C/c2c(C)[nH]n(-c3ccccc3)c2=O)c(C#N)c1C
Reply: > 25 µM (inactive)

Ask: Same again, this time with COc1ccc(C2N(c3ccc(Cl)cc3)N=C(C(C)=O)N(C)N2C(C)=O)cc1 (stereo not drawn)
Reply: 15.8 µM

Ask: Can you handle Cn1c(CN2CCCCC2)nc2cc(NC(=O)c3ccc(Cl)cc3)ccc21 next?
Reply: > 25 µM (inactive)

Ask: Next entry: CCOc1ccc(NCc2nnc(SCc3ccc(Cl)cc3)n2-c2ccccc2)cc1
Reply: > 25 µM (inactive)

Ask: Queued: Cc1c(C)c2ccc(OC3CCCCC3=O)cc2oc1=O (stereo not drawn)
Reply: > 25 µM (inactive)

Ask: Next molecule up: Cc1cccc(N(C)C(=S)Oc2ccc3ccccc3c2)c1
Reply: 8.79 µM

Ask: Please do the same for CCN(Cc1ccccc1)c1ccc(/C=N/NC(=S)NC(C)C)cc1 as well.
Reply: 5.04 µM

Ask: Can you check COC(=O)c1c(NC(=O)CN2CCC3(O)CCCCC3C2c2ccc(OC)cc2OC)sc(C)c1C (stereo not drawn) next?
Reply: 14.9 µM

Ask: Please give the result for CCCCC(=O)O[C@H]1CC[C@H]2[C@@H]3CCc4cc(O)ccc4[C@H]3CC[C@]12C too.
Reply: 12.3 µM

Ask: Again, but for Cc1cccc2nc(-c3ccccc3)nc(N3CCC(O)(c4ccc(Cl)cc4)CC3)c12
Reply: 4.04 µM

Ask: Next: Oc1ccccc1CN(Cc1ccco1)CC(O)COCc1ccc(Cl)cc1 (stereo not drawn)
Reply: 19.1 µM

Ask: Request: Clc1cccc(NCc2nnc(SCc3ccc(Cl)cc3Cl)o2)c1
Reply: 10.6 µM
